Hey, just so you know, these numbers are from ChEMBL document CHEMBL3596093.

# Test system: Staphylococcus aureus
# procedure_text: Bactericidal activity against methicillin-resistant Staphylococcus aureus CCARM 3167 after 24 hrs by agar plate method
# Assay type: functional
# conditions_used: CCARM 3167, 24 h

| molecule | relational_operator | MBC / µg/mL |
| --- | --- | --- |
| Cc1cccc(-c2n[nH]c(=S)n2/N=C/c2ccc(/C=C3\SC(=S)N(CC(=O)O)C3=O)cc2)c1 | > | 256 |
| O=C(O)[C@H](Cc1ccccc1)N1C(=O)/C(=C/c2ccc(/C=N/n3c(-c4cccc(Cl)c4)n[nH]c3=S)cc2)SC1=S | = | 8 |
| O=C(O)[C@H](Cc1ccccc1)N1C(=O)/C(=C/c2ccc(/C=N/n3c(-c4ccccc4Br)n[nH]c3=S)cc2)SC1=S | = | 16 |
| Cc1cccc(-c2n[nH]c(=S)n2/N=C/c2ccc(/C=C3\SC(=S)N([C@@H](Cc4ccccc4)C(=O)O)C3=O)cc2)c1 | = | 128 |
| O=C(O)[C@H](Cc1ccccc1)N1C(=O)/C(=C/c2ccc(/C=N/n3c(-c4ccc(Br)cc4)n[nH]c3=S)cc2)SC1=S | = | 32 |
| O=C(O)[C@H](Cc1ccccc1)N1C(=O)/C(=C/c2ccc(/C=N/n3c(-c4cccc(Br)c4)n[nH]c3=S)cc2)SC1=S | = | 128 |
| COc1c(N2CCNC(C)C2)c(F)cc2c(=O)c(C(=O)O)cn(C3CC3)c12 (stereo unspecified) [GATIFLOXACIN] | = | 2 |
| O=C1NC(=S)S/C1=C\c1ccc(/C=N/n2c(-c3ccccc3Cl)n[nH]c2=S)cc1 | > | 128 |
| O=C(O)CN1C(=O)/C(=C/c2ccc(/C=N/n3c(-c4ccccc4Br)n[nH]c3=S)cc2)SC1=S | = | 256 |
| O=C(O)[C@H](Cc1ccccc1)N1C(=O)/C(=C/c2ccc(/C=N/n3c(-c4ccc(F)cc4)n[nH]c3=S)cc2)SC1=S | = | 128 |
| O=C(O)CN1C(=O)/C(=C/c2ccc(/C=N/n3c(-c4ccc(F)cc4)n[nH]c3=S)cc2)SC1=S | > | 128 |
| Cc1ccc(-c2n[nH]c(=S)n2/N=C/c2ccc(/C=C3\SC(=S)N([C@@H](Cc4ccccc4)C(=O)O)C3=O)cc2)cc1 | = | 64 |
| O=C(O)[C@H](Cc1ccccc1)N1C(=O)/C(=C/c2ccc(/C=N/n3c(-c4ccccc4)n[nH]c3=S)cc2)SC1=S | = | 16 |
| O=C1NC(=S)S/C1=C\c1ccc(/C=N/n2c(-c3ccccc3Br)n[nH]c2=S)cc1 | > | 128 |
| COc1c(N2C[C@@H]3CCCN[C@@H]3C2)c(F)cc2c(=O)c(C(=O)O)cn(C3CC3)c12 [MOXIFLOXACIN] | = | 1 |
| Cc1ccccc1-c1n[nH]c(=S)n1/N=C/c1ccc(/C=C2\SC(=S)N([C@@H](Cc3ccccc3)C(=O)O)C2=O)cc1 | = | 32 |

###

Overview of recorded MIC for various compounds
# Test system: Salmonella typhimurium
# procedure_text: Antibacterial activity against Salmonella typhimurium 2421 after 24 hrs by two-fold serial dilution method
# Format: functional, Salmonella enterica subsp. enterica serovar Typhimurium
# conditions_used: Salmonella enterica, 2421, 24 h
property_name: MIC

| compound | assay_target | result |
| --- | --- | --- |
| O=C1NC(=S)S/C1=C\c1ccc(/C=N/n2c(-c3ccccc3)n[nH]c2=S)cc1 | Salmonella typhimurium | > 128 µg/mL |
| COc1c(N2CCNC(C)C2)c(F)cc2c(=O)c(C(=O)O)cn(C3CC3)c12 (centres undefined) [GATIFLOXACIN] | Salmonella typhimurium | 0.5 µg/mL |
| COc1c(N2C[C@@H]3CCCN[C@@H]3C2)c(F)cc2c(=O)c(C(=O)O)cn(C3CC3)c12 [MOXIFLOXACIN] | Salmonella typhimurium | 0.5 µg/mL |
| Cc1cccc(-c2n[nH]c(=S)n2/N=C/c2ccc(/C=C3\SC(=S)N(CC(=O)O)C3=O)cc2)c1 | Salmonella typhimurium | > 128 µg/mL |

###

# Tested on: Staphylococcus aureus
# procedure_text: Bactericidal activity against methicillin-resistant Staphylococcus aureus CCARM 3506 after 24 hrs by agar plate method
# Assay type: functional
# conditions_used: CCARM 3506, 24 h

| smiles_representation | MBC |
| --- | --- |
| O=C1NC(=S)S/C1=C\c1ccc(/C=N/n2c(-c3ccccc3)n[nH]c2=S)cc1 | > 256 µg/mL |
| O=C1NC(=S)S/C1=C\c1ccc(/C=N/n2c(-c3ccccc3Br)n[nH]c2=S)cc1 | > 128 µg/mL |
| O=C(O)[C@H](Cc1ccccc1)N1C(=O)/C(=C/c2ccc(/C=N/n3c(-c4ccc(F)cc4)n[nH]c3=S)cc2)SC1=S | > 256 µg/mL |
| Cc1cccc(-c2n[nH]c(=S)n2/N=C/c2ccc(/C=C3\SC(=S)NC3=O)cc2)c1 | > 256 µg/mL |

###

# Tested on: Staphylococcus aureus
# procedure_text: Bactericidal activity against quinolone-resistant Staphylococcus aureus CCARM 3505 after 24 hrs by agar plate method
# Type: functional
# conditions_used: CCARM 3505, 24 h
Overview of recorded MBC for various compounds

| smiles_representation | relational_operator | MBC [µg/mL] |
| --- | --- | --- |
| Cc1cccc(-c2n[nH]c(=S)n2/N=C/c2ccc(/C=C3\SC(=S)NC3=O)cc2)c1 | > | 256 |
| O=C(O)[C@H](Cc1ccccc1)N1C(=O)/C(=C/c2ccc(/C=N/n3c(-c4ccccc4)n[nH]c3=S)cc2)SC1=S | = | 32 |
| O=C(O)[C@H](Cc1ccccc1)N1C(=O)/C(=C/c2ccc(/C=N/n3c(-c4cccc(Cl)c4)n[nH]c3=S)cc2)SC1=S | = | 32 |
| Cc1cccc(-c2n[nH]c(=S)n2/N=C/c2ccc(/C=C3\SC(=S)N([C@@H](Cc4ccccc4)C(=O)O)C3=O)cc2)c1 | = | 64 |

###

# Tested on: Staphylococcus aureus
# procedure_text: Bactericidal activity against quinolone-resistant Staphylococcus aureus CCARM 3519 after 24 hrs by agar plate method
# Format: functional
# conditions_used: CCARM 3519, 24 h
property_name: MBC

| smiles_representation | property_name | result |
| --- | --- | --- |
| O=C1NC(=S)S/C1=C\c1ccc(/C=N/n2c(-c3ccccc3Br)n[nH]c2=S)cc1 | MBC | > 128 µg/mL |
| Cc1ccccc1-c1n[nH]c(=S)n1/N=C/c1ccc(/C=C2\SC(=S)N([C@@H](Cc3ccccc3)C(=O)O)C2=O)cc1 | MBC | > 128 µg/mL |
| O=C(O)CN1C(=O)/C(=C/c2ccc(/C=N/n3c(-c4ccccc4Br)n[nH]c3=S)cc2)SC1=S | MBC | > 256 µg/mL |
| Cc1cccc(-c2n[nH]c(=S)n2/N=C/c2ccc(/C=C3\SC(=S)NC3=O)cc2)c1 | MBC | > 256 µg/mL |
| Cc1ccc(-c2n[nH]c(=S)n2/N=C/c2ccc(/C=C3\SC(=S)N([C@@H](Cc4ccccc4)C(=O)O)C3=O)cc2)cc1 | MBC | > 128 µg/mL |
| Cc1cccc(-c2n[nH]c(=S)n2/N=C/c2ccc(/C=C3\SC(=S)N(CC(=O)O)C3=O)cc2)c1 | MBC | > 256 µg/mL |
| O=C(O)[C@H](Cc1ccccc1)N1C(=O)/C(=C/c2ccc(/C=N/n3c(-c4ccccc4Cl)n[nH]c3=S)cc2)SC1=S | MBC | > 128 µg/mL |

###

Overview of recorded MBC for various compounds
# System: Staphylococcus aureus
# procedure_text: Bactericidal activity against quinolone-resistant Staphylococcus aureus CCARM 3505 after 24 hrs by agar plate method
# Type: functional
# conditions_used: CCARM 3505, 24 h
property_name: MBC

| smiles_representation | property_name | result |
| --- | --- | --- |
| O=C1NC(=S)S/C1=C\c1ccc(/C=N/n2c(-c3ccccc3Br)n[nH]c2=S)cc1 | MBC | > 128 µg/mL |
| O=C1NC(=S)S/C1=C\c1ccc(/C=N/n2c(-c3ccccc3)n[nH]c2=S)cc1 | MBC | > 256 µg/mL |
| Cc1cccc(-c2n[nH]c(=S)n2/N=C/c2ccc(/C=C3\SC(=S)N(CC(=O)O)C3=O)cc2)c1 | MBC | > 256 µg/mL |

###

Overview of recorded MIC for various compounds
# System: Staphylococcus aureus
# procedure_text: Antibacterial activity against Staphylococcus aureus KCTC 209 after 24 hrs by two-fold serial dilution method
# Assay type: functional
# conditions_used: KCTC 209, 24 h

| smiles_representation | assay_target | relational_operator | MIC, µg/mL |
| --- | --- | --- | --- |
| O=C(O)[C@H](Cc1ccccc1)N1C(=O)/C(=C/c2ccc(/C=N/n3c(-c4ccccc4Cl)n[nH]c3=S)cc2)SC1=S | Staphylococcus aureus | > | 64 |
| Cc1ccc(-c2n[nH]c(=S)n2/N=C/c2ccc(/C=C3\SC(=S)N([C@@H](Cc4ccccc4)C(=O)O)C3=O)cc2)cc1 | Staphylococcus aureus | > | 64 |
| O=C(O)CN1C(=O)/C(=C/c2ccc(/C=N/n3c(-c4ccccc4Br)n[nH]c3=S)cc2)SC1=S | Staphylococcus aureus | > | 64 |
| O=C1NC(=S)S/C1=C\c1ccc(/C=N/n2c(-c3ccccc3)n[nH]c2=S)cc1 | Staphylococcus aureus | = | 64 |
| O=C(O)CN1C(=O)/C(=C/c2ccc(/C=N/n3c(-c4ccc(Br)cc4)n[nH]c3=S)cc2)SC1=S | Staphylococcus aureus | > | 64 |
| O=C(O)CN1C(=O)/C(=C/c2ccc(/C=N/n3c(-c4cccc(Cl)c4)n[nH]c3=S)cc2)SC1=S | Staphylococcus aureus | > | 64 |
| O=C1NC(=S)S/C1=C\c1ccc(/C=N/n2c(-c3ccccc3Br)n[nH]c2=S)cc1 | Staphylococcus aureus | = | 64 |
| O=C(O)[C@H](Cc1ccccc1)N1C(=O)/C(=C/c2ccc(/C=N/n3c(-c4cccc(Cl)c4)n[nH]c3=S)cc2)SC1=S | Staphylococcus aureus | = | 8 |
| O=C1NC(=S)S/C1=C\c1ccc(/C=N/n2c(-c3ccccc3Cl)n[nH]c2=S)cc1 | Staphylococcus aureus | = | 64 |
| O=C(O)[C@H](Cc1ccccc1)N1C(=O)/C(=C/c2ccc(/C=N/n3c(-c4ccc(Cl)cc4)n[nH]c3=S)cc2)SC1=S | Staphylococcus aureus | > | 64 |
